FYI, the data here is from PubChem BioAssay AID1159580.

# assay_summary: chemical genetic growth profiling, strain panel (AID 1159580);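 further: tested at 20 µM; growth read once vehicle control cultures reached saturation at 30 °C; 1 = growth at the plate median or of vehicle wells; lower values mean less growth of the strain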
# applied_conditions: S. cerevisiae deletion strains, growth OD, locus YDR159W, strain sac3, hits give low values
About 2,000 (36%) of roughly 5,500 compounds were called active. Roughly 18% stayed inconclusive and do not appear here. This is one part of the list.
Doc: threshold 1 (exclusive). Items with normalized growth beneath it return label 1; others return label 0.

{"molecule": "CC(=O)OCC(=O)[C@@]1(O)CCC2C3CCC4=CC(=O)CC[C@]4(C)C3C(=O)C[C@@]21C (stereo partly specified)", "label_class": "label 1"}

Moving on to the next molecule.
Prompt line: Consider `COc1cc2c(cc1OC)Cc1cc(OC)c(OC)cc1Cc1cc(OC)c(OC)cc1C2` . Does its normalized growth lie strictly below 1?
Response line: label 0

* * *

Reported normalized growth values for the following molecules.
# assay_summary: chemical genetic growth profiling, strain panel (AID 1159580)
# applied_conditions: S. cerevisiae deletion strains, growth OD, locus YGL167C, strain pmr1, hits give low values
Hit rate of the full screen: of about 5,500 compounds, about 2,000 (36%) were called active. Not shown: some 18% with an inconclusive outcome. Some of the results follow.
Could you respond with only the numeric value?

Past entries and their recorded results:
{"molecule": "CN1CCCN=C1COC(=O)C(O)(c1ccccc1)C1CCCCC1 (stereo not drawn)", "normalized growth": 0.987}
{"molecule": "CC(=O)NC1SCCC1=O (stereo not drawn)", "normalized growth": 0.977}
{"molecule": "CCN(CC)CCNC(=O)c1cc(Br)c(N)cc1OC", "normalized growth": 0.98}
{"molecule": "O=C(O)C1(O)C[C@@H](O)C(O)[C@H](O)C1 (stereo partly drawn)", "normalized growth": 0.976}
{"molecule": "CN(C)C(=S)SSC(=S)N(C)C", "normalized growth": 0.0722}

GET /value?item= CCN(CCO)CCCC(C)Nc1ccnc2cc(Cl)ccc12 (stereo not drawn) &field=normalized growth returns 0.994

GET /value?item= `COc1ccc2cc([C@H](C)C(=O)O)ccc2c1` &field=normalized growth returns 0.977

GET /value?item= CCC(=O)O[C@H]1CCC2C3CCC4=CC(=O)CC[C@]4(C)C3CC[C@@]21C (stereo partly drawn) &field=normalized growth returns 0.928

GET /value?item= `COc1cc(O)c(C(=O)/C=C/c2ccc(O)c(OC)c2)c(OC)c1` &field=normalized growth returns 0.975

GET /value?item= CC(C(=O)O)c1ccc(-c2ccccc2)c(F)c1 (stereo not drawn) &field=normalized growth returns 0.983

* * *

# assay_summary: chemical genetic growth profiling, strain panel (AID 1159580)
# applied_conditions: S. cerevisiae deletion strains, growth OD, locus YOL012C, strain htz1
The campaign covered roughly 5,500 compounds. About 2,000 (36%) were called active. Not shown: some 18% with an inconclusive outcome. The list shows a part of the results.
readout_type: normalized growth
Could you respond with only the numeric value?

GET /value?item= CC(C(=O)O)c1ccc(-c2ccccc2)c(F)c1 (stereo not given) &field=normalized growth returns 1.06

GET /value?item= CC1(C)C(C=C(Cl)Cl)C1C(=O)OC(C#N)c1cccc(Oc2ccccc2)c1 (stereo not given) &field=normalized growth returns 1.96

GET /value?item= COc1ccc(OC)c(C(O)C(C)N)c1 (stereo not given) &field=normalized growth returns 1.17

GET /value?item= CC(C(=O)O)c1cccc(C(=O)c2ccccc2)c1 (stereo not given) &field=normalized growth returns 1.22

GET /value?item= CC(C(=O)O)c1cccc(Oc2ccccc2)c1 (stereo not given) &field=normalized growth returns 1.04

* * *

# assay_summary: chemical genetic growth profiling, strain panel (AID 1159580);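 further: tested at 20 µM; growth read once vehicle control cultures reached saturation at 30 °C; 1 = growth at the plate median or of vehicle wells; lower values mean less growth of the strain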
# applied_conditions: S. cerevisiae deletion strains, growth OD, locus YML070W, strain DAK1, hits give low values
Hit rate of the full screen: of about 5,500 compounds, about 2,000 (36%) were called active. Another 18% or so got no clear call; they are omitted. The list shows a part of the results.
readout_type: normalized growth
Could you respond with only the numeric value?

{"compound": "Cc1nnsc1C(=O)NNc1ccc(F)cc1F", "normalized growth": 0.696}
{"compound": "O=C(NNc1ccccc1F)c1ccno1", "normalized growth": 0.906}
{"compound": "O=S(=O)(Nc1cccc(CCc2ccccn2)c1)c1cc(Cl)c(Cl)cc1Cl", "normalized growth": 0.95}
{"compound": "COc1cc(NC(=S)N(C)C)c(OC)cc1Cl", "normalized growth": 0.974}
{"compound": "Cc1nnsc1C(=O)NNc1c(Cl)cccc1Cl", "normalized growth": 0.927}
{"compound": "CS(=NC(=O)c1cccc(Cl)c1)c1ccc(OC(=O)c2ccc(Cl)cc2)cc1 (centres undefined)", "normalized growth": 0.94}

GET /value?item= `Cc1c(Cc2ccc(F)cc2)c(=O)oc2cc(O)ccc12` &field=normalized growth returns 0.999

GET /value?item= `Cc1cc(NNC(=O)c2ccccc2Cl)nc2c1c(C)nn2C` &field=normalized growth returns 0.956

GET /value?item= `Cc1cc(Cl)ccc1NNC(=O)c1snnc1C` &field=normalized growth returns 0.865

GET /value?item= `CCOC(=O)CSC(=S)NCc1ccc(C)cc1` &field=normalized growth returns 0.949

GET /value?item= `O=c1c(Sc2ccc(Cl)cc2)c(Sc2ccc(Cl)cc2)c1=O` &field=normalized growth returns 0.0995

GET /value?item= `CC(C)(C)CN/C(C#N)=C(/C#N)NCc1cccc(Cl)c1` &field=normalized growth returns 0.965

GET /value?item= `S=C(Nc1ccc(Cl)cc1Cl)N(c1cccc(Cl)c1)c1nc2ccccc2s1` &field=normalized growth returns 0.795

GET /value?item= COc1cc2c(cc1OC)C(C)N(C(=O)c1sc3ccccc3c1Cl)CC2 (centres undefined) &field=normalized growth returns 0.912

GET /value?item= O=C1C(=O)N(CN2CCc3c([nH]c4ccccc34)C2C(F)(F)F)c2ccc(F)cc21 (centres undefined) &field=normalized growth returns 0.716

GET /value?item= `Cc1cc(C(=O)NNc2ccc(F)cc2F)no1` &field=normalized growth returns 0.912

GET /value?item= `Cc1cc(Cl)ccc1NNC(=O)c1ccno1` &field=normalized growth returns 0.903

* * *

# assay_summary: chemical genetic growth profiling, strain panel (AID 1159580);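 further: tested at 20 µM; growth read once vehicle control cultures reached saturation at 30 °C; 1 = growth at the plate median or of vehicle wells; lower values mean less growth of the strain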
# applied_conditions: S. cerevisiae deletion strains, growth OD, locus YPL209C, strain IPL1, hits give low values
The whole screen tested about 5,500 compounds, of which about 2,000 (36%) were called active. Inconclusive results (about 18%) are left out. The list shows a part of the results.
Reported normalized growth values for the following molecules.
Could you respond with only the numeric value?

{"molecule": "O=S(=O)(Nc1cccc2nsnc12)c1cc(Cl)sc1Cl", "normalized growth": 0.96}

GET /value?item= `O=S(=O)(Nc1cccc(CCc2ccccn2)c1)c1cc(Cl)c(Cl)cc1Cl` &field=normalized growth returns 0.976

GET /value?item= `CC(C)(C)CN/C(C#N)=C(/C#N)NCc1cccc(Cl)c1` &field=normalized growth returns 0.982

GET /value?item= CSC1=NNC(c2nn(C)cc2Cl)S1 (stereo unspecified) &field=normalized growth returns 0.595

GET /value?item= `Cc1c(Cc2ccc(F)cc2)c(=O)oc2cc(O)ccc12` &field=normalized growth returns 0.982

GET /value?item= `CCOC(=O)CSC(=S)NCc1ccc(C)cc1` &field=normalized growth returns 0.953

* * *

Reported normalized growth values for the following compounds.
# assay_summary: chemical genetic growth profiling, strain panel (AID 1159580);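 further: tested at 20 µM; growth read once vehicle control cultures reached saturation at 30 °C; 1 = growth at the plate median or of vehicle wells; lower values mean less growth of the strain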
# applied_conditions: S. cerevisiae deletion strains, growth OD, locus YLR133W, strain CKI1, hits give low values
The campaign covered roughly 5,500 compounds. About 2,000 (36%) were called active. Not shown: some 18% with an inconclusive outcome. This is one part of the list.
Could you respond with only the numeric value?

Past entries and their recorded results:
{"compound": "Cc1c(Cc2ccc(F)cc2)c(=O)oc2cc(O)ccc12", "normalized growth": 0.968}
{"compound": "Cc1ccccc1C(=O)Oc1ccc(C(F)(F)F)cc1[N+](=O)[O-]", "normalized growth": 0.909}
{"compound": "COc1cc(NC(=S)NNS(=O)(=O)c2ccc(C)cc2)c(OC)cc1Cl", "normalized growth": 0.947}
{"compound": "COc1cc(NC(=S)N(C)C)c(OC)cc1Cl", "normalized growth": 0.987}
{"compound": "CS(=NC(=O)c1cccc(Cl)c1)c1ccc(OC(=O)c2ccc(Cl)cc2)cc1 (stereo unspecified)", "normalized growth": 0.952}

GET /value?item= `CC(C)(C)CN/C(C#N)=C(/C#N)NCc1cccc(Cl)c1` &field=normalized growth returns 0.974

GET /value?item= Cc1ccc(OCC2SCCN2C(=O)c2ccc(C(F)(F)F)cc2)c([N+](=O)[O-])c1 (stereo unspecified) &field=normalized growth returns 1

GET /value?item= `COc1cc(NC(=S)NC(=O)c2ccccc2)c(OC)cc1Cl` &field=normalized growth returns 0.968

GET /value?item= `Cc1ccc(-c2csc(-c3cccnc3)n2)c(C)c1` &field=normalized growth returns 0.905

GET /value?item= `Cc1nn(Cc2cccc(C(=O)Nc3ccc(Cl)cc3)c2)c(C)c1Br` &field=normalized growth returns 0.967

GET /value?item= `N#CC(C#N)=C(SCc1c(Cl)cccc1Cl)SCc1c(Cl)cccc1Cl` &field=normalized growth returns 0.991
